Sourced from the supplement of paper PMC10567573

B1: KRT13 (parent)
chain: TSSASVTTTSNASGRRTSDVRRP

variants of: B1; test: protein stability index of a GFP-peptide fusion (GPS, HEK-293T) (PSI 1-6); higher = more stable; conditions: c terminus: native;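 further: lentivirally expressed fusions sorted by FACS into six bins by GFP to DsRed ratio, PSI derived from sequencing read proportions per bin multiplied by bin number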
Property label: protein stability index

> print(dat)
   mutant.designation  result
1                 T1H    2.22
2                R22H    3.45
3                S18L    2.03
4                R16W    2.87
5                S18D    2.19

query: Query (variant): P23G ; field requested: protein stability index
result: 3.15

query: Query (variant): G14Q ; field requested: protein stability index
result: 2.23

query: Query (variant): S18E ; field requested: protein stability index
result: 2.45

query: Query (variant): R21T ; field requested: protein stability index
result: 5.55
